Cited source for all entries: PubChem BioAssay (EPA / NIEHS)

- Read-out: Forkhead box O3 (FOXO3), FOXO3 (gene 2309)
- protocol: LTEA_HepaRG_FOXO3: Life Technologies and Expression Analysis (LTEA) Assay for Forkhead box O3 (FOXO3) using HepaRG (AID 2283459)
- assay_setup: mRNA level, 48 h; actives raise or lower the signal
Calls of active or inactive are those of the source. The calls were made as follows: active = hit-call score of the fitted dose curve at least 0.9, where 1 is the maximum; inactive = score below 0.9.
Select the correct class. Options are active, inactive and nothing else.

Worked set:
Clc1cccc(Cl)c1; inactive
CC(C)O.CC(C)O.OCCN(CCO)CCO.OCCN(CCO)CCO.[Ti]; inactive
CC(C)(C)c1ccccc1O; inactive
O=C(O)C1(c2ccc3c(c2)OC[C@H](Cc2ccc(-c4ccccc4)cc2)[C@H]3O)CCCC1; inactive
OCCN(CCO)CCO; inactive
N#Cc1cccnc1; inactive
COc1ccccc1N; inactive
CN(C)C(=S)S; inactive

Dear colleague, could you share the recorded outcome for O=C(N[C@H]1CN2CCC1CC2)c1ccc2c(c1)OCCO2 when you have a moment?
inactive

Dear colleague, could you share the recorded outcome for Clc1cccc(Cl)c1Cl when you have a moment?
inactive

Dear colleague, could you share the recorded outcome for CCCCCCCCCCCCc1cccc(S(=O)(=O)O)c1 when you have a moment?
active
